# Read-out: X-box binding protein 1 (XBP1), XBP1 (gene 7494)
# assay.method.text: LTEA_HepaRG_XBP1: Life Technologies and Expression Analysis (LTEA) Assay for X-box binding protein 1 (XBP1) using HepaRG (AID 2283540)
# experimental.context: mRNA level, 48 h; actives raise or lower the signal
# Experimental: LTEA_HepaRG is a cell based, multiplexed-readout assay that uses HepaRG, a human liver cell line, with measurements taken at 48 hours after chemical dosing on a 96-well plate.LTEA_HepaRG_XBP1 is one of 102 assay component(s) measured in the LTEA HepaRG cell culture assay. It is a marker of Diseases associated with XBP1 including Major Affective Disorder 7 and Bipolar Disorder.Data from the assay component LTEA_HepaRG_XBP1 was analyzed into 1 endpoint. […]
The source made the active and inactive calls. The calls were made as follows: active = hit-call score of the fitted dose curve at least 0.9, where 1 is the maximum; inactive = score below 0.9.
Classes used: t for active, f for inactive

{"compound": "COc1cc2c(c(OC)c1OC)-c1ccc(OC)c(=O)cc1[C@@H](NC(C)=O)CC2", "label.value": "t"}
{"compound": "C[C@@H](Oc1ccc(CNC(=O)c2cccnc2Oc2ccc3c(c2)OCO3)c(F)c1)C(=O)O", "label.value": "f"}
{"compound": "NC(=O)NN=Cc1ccc([N+](=O)[O-])o1", "label.value": "f"}
{"compound": "OCCNCCO", "label.value": "t"}
{"compound": "CCOC(N)=O", "label.value": "f"}
{"compound": "CCCCCCCCCCCCCCCCOS(=O)(=O)O", "label.value": "f"}
{"compound": "CCCCC(CC)C(=O)OCCOCCOCCOC(=O)C(CC)CCCC (stereo unspecified)", "label.value": "f"}
{"compound": "OC(CCl)CCl", "label.value": "f"}
{"compound": "c1ccc2cc3ccccc3cc2c1", "label.value": "f"}
{"compound": "O=C(O)[C@H](O)[C@@H](O)C(=O)O", "label.value": "f"}
{"compound": "NC(=O)N(O)[C@@H]1COc2cc(OCc3ccccc3)ccc21", "label.value": "f"}
{"compound": "CCCCCCCCCCCCCCO", "label.value": "f"}
{"compound": "C=CCc1cc(S(=O)(=O)c2ccc(O)c(CC=C)c2)ccc1O", "label.value": "t"}
{"compound": "CCCCCOC(C)=O", "label.value": "f"}
{"compound": "OCc1ccccc1", "label.value": "f"}
{"compound": "CCCOc1ccc(S(=O)(=O)N2CCN(CC)CC2)cc1-c1nc2c(CC)n(Cc3ccccn3)nc2c(=O)[nH]1", "label.value": "f"}
{"compound": "CCOc1ccc2[nH]cc(C(=O)NCc3ccccc3)c(=O)c2n1", "label.value": "f"}
{"compound": "CCCc1ccccc1", "label.value": "f"}
{"compound": "Cc1ccc(S(=O)(=O)NC(=O)NN2CCCCCC2)cc1", "label.value": "f"}
{"compound": "CC[C@H](C)C(=O)O[C@H]1C[C@H](O)C=C2C=C[C@H](C)[C@H](CC[C@@H](O)C[C@@H](O)CC(=O)O)[C@H]21", "label.value": "f"}
{"compound": "O=c1[nH]cnc2c1ncn2[C@H]1CC[C@@H](CO)O1", "label.value": "f"}
{"compound": "CCCCCCCC/C=C\\CCCCCCCC(=O)OC[C@@H](O)[C@H]1OC[C@H](O)[C@H]1O", "label.value": "f"}
{"compound": "Nc1ccn([C@@H]2O[C@H](CO)[C@@H](O)[C@@H]2O)c(=O)n1", "label.value": "f"}
{"compound": "NNC(=O)c1ccncc1", "label.value": "f"}
{"compound": "O=S1(=O)CCCO1", "label.value": "f"}
{"compound": "O=C(O)c1ccc2c(c1)nc(C(=O)NC1CCN(C3CC3)CC1)n2Cc1cc(-c2ccc(Cl)s2)on1", "label.value": "f"}

Numbers sourced from PubChem BioAssay (EPA / NIEHS).
